# ASSAY TARGET: FRMPD2_1, Q68DX3
# Sequence (Q68DX3 770-861): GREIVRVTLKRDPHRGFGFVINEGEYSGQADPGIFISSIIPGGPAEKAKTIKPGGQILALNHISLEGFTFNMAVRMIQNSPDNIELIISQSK
# ASSAY TEXT: holdup assay
# Set-up: key: below the threshold = too weak to quantify, mostly under pKd 3.1 to 4
# MEASUREMENT SETUP: plain residues with an end cap or a label only (N-terminal biotin on a linker: ado-ado)
MEASURED ENDPOINT: pKd

Worked cases, pKd given:
[[record]]
binder = "THHRKIHTRV [ZNF599, Q96NL3]"
measured_endpoint = "pKd"
reported_value = 3.89

[[record]]
binder = "QKNKDREYYV [NRXN3, Q9HDB5]"
measured_endpoint = "pKd"
reported_value = 3.7

[[record]]
binder = "KEKASTETEC [TRPM1, Q7Z4N2]"
measured_endpoint = "pKd"
reported_value = "below the threshold"

[[record]]
binder = "RDYTQSSSSL [GRM5, P41594]"
measured_endpoint = "pKd"
reported_value = "below the threshold"

[[record]]
binder = "RSPVATATSC [DUSP5, Q16690]"
measured_endpoint = "pKd"
reported_value = "below the threshold"


Form field pKd, entry TKEIPNCTSV [SORCS3, Q9UPU3] : below the threshold
